- System: Vero E6 infected with SARS-CoV-2
- assayName: morphology score (similarity to uninfected cells); higher = more like uninfected cells
- conditionDescription: 24 h
measuredParameter: morphology score
Returns: the value as a bare number; no unit string appended.

What value of morphology score on Vero E6 infected with SARS-CoV-2 does C[C@H](Oc1ccc(S(C)(=O)=O)cc1C(=O)N1CCN(c2ncc(C(F)(F)F)cc2F)CC1)C(F)(F)F [bitopertin] (10 µM) have?
0.119

Could you share what morphology score was measured for C#CCC(Cc1cnc2nc(N)nc(N)c2n1)c1ccc(C(=O)N[C@@H](CCC(=O)O)C(=O)O)cc1 (stereo partly drawn) [pralatrexate] (10 µM) , tested on Vero E6 infected with SARS-CoV-2?
0.042

// fetch Vero E6 infected with SARS-CoV-2 morphology score for CC(C)(C)c1cc(C=C(C#N)C#N)cc(C(C)(C)C)c1O [tyrphostin-A9] (0.833333 µM)
0.116

Fill in the recorded morphology score for this compound, with Vero E6 infected with SARS-CoV-2 as test system: NCCCC(O)(P(=O)(O)O)P(=O)(O)O [alendronate] (10 µM)
0.102

Form entry - test system: Vero E6 infected with SARS-CoV-2; read-out: morphology score; compound: CCCNC(=O)N1N=C(c2ccc(N)cc2)c2cc3c(cc2C1C)OCO3 (stereo not drawn) (10 µM)
0.256

morphology score of CCCC[C@H]1C(=O)N(c2ccccc2)N(c2ccc(O)cc2)C1=O [oxyphenbutazone] (0.833333 µM) on Vero E6 infected with SARS-CoV-2?
0.131

Lab note: need morphology score for CC(C)OC(=O)[C@H](C)N[P@@](=O)(OC[C@H]1O[C@@H](n2ccc(=O)[nH]c2=O)[C@](C)(F)[C@@H]1O)Oc1ccccc1 (10 µM) on Vero E6 infected with SARS-CoV-2, anyone have it?
0.087

For the record CN1C(C)(C)CCCC1(C)C [pempidine] (10 µM) , what value of morphology score is listed for Vero E6 infected with SARS-CoV-2?
0.0949

====

- System: Vero E6 infected with SARS-CoV-2
- assayName: inhibition of SARS-CoV-2 cytopathic effect; higher = more antiviral protection, active = above 15
- conditionDescription: 8.33 nM; 48 h
measuredParameter: inhibition of SARS-CoV-2 cytopathic effect (%)
# unit: % | format: bare number

Given the compound c1ccc2sc(N3CCN(Cc4ccc5c(c4)OCO5)CC3)nc2c1 [2-[1-(4-piperonyl)piperazinyl]benzothiazole] , what is its reported inhibition of SARS-CoV-2 cytopathic effect?
-1.04

Can you share its inhibition of SARS-CoV-2 cytopathic effect? I mean this compound: CC1(C)CC[C@]2(C(=O)O)CC[C@]3(C)[C@H](C(=O)C=C4[C@@]5(C)C=C(C#N)C(=O)C(C)(C)[C@@H]5CC[C@]43C)[C@@H]2C1
-1.62

What does the record list as inhibition of SARS-CoV-2 cytopathic effect for COC(=O)C1=C(C)NC(C)=C(C(=O)OCCSc2ccccc2)[C@@H]1C ?
-3.84

Data request, read-out inhibition of SARS-CoV-2 cytopathic effect, for Cc1cnc(-c2cnc(NCCNc3ccc(C#N)cn3)nc2-c2ccc(Cl)cc2Cl)[nH]1
3.19

GET /values?readout=inhibition of SARS-CoV-2 cytopathic effect&item= OCc1cccnc1 [nicotinyl-alcohol-tartrate]
-0.51

inhibition of SARS-CoV-2 cytopathic effect for CC(=O)Nc1nnc(S(N)(=O)=O)s1 [acetazolamide] ?
-1.99

# query: inhibition of SARS-CoV-2 cytopathic effect of entry COc1ccc(C(C)=O)c(O)c1
1.99

Consider the compound shown here: CCO[C@@H]1OC(=O)C[C@@H]1NC(=O)[C@@H]1CCCN1C(=O)[C@@H](NC(=O)c1ccc(N)c(Cl)c1)C(C)(C)C What is its recorded inhibition of SARS-CoV-2 cytopathic effect?
-1.09
